target: TYK2 (Homo sapiens, UniProt P29597); construct: Degradation of TYK2 in cells was quantitatively measured using Meso Scale Discovery (MSD) technology; endogenous in cells; host or cells: OCI-LY10; assay: TYK2 MSD degradation in OCI-LY10 cells; assay type: cell-based; settings: TYK2 degradation in OCI-LY10 cells, 4 to 24 hours incubation, read-out: TYK2 MSD OCI-LY10 Rel-DC50
Sequence (P29597 whole entry): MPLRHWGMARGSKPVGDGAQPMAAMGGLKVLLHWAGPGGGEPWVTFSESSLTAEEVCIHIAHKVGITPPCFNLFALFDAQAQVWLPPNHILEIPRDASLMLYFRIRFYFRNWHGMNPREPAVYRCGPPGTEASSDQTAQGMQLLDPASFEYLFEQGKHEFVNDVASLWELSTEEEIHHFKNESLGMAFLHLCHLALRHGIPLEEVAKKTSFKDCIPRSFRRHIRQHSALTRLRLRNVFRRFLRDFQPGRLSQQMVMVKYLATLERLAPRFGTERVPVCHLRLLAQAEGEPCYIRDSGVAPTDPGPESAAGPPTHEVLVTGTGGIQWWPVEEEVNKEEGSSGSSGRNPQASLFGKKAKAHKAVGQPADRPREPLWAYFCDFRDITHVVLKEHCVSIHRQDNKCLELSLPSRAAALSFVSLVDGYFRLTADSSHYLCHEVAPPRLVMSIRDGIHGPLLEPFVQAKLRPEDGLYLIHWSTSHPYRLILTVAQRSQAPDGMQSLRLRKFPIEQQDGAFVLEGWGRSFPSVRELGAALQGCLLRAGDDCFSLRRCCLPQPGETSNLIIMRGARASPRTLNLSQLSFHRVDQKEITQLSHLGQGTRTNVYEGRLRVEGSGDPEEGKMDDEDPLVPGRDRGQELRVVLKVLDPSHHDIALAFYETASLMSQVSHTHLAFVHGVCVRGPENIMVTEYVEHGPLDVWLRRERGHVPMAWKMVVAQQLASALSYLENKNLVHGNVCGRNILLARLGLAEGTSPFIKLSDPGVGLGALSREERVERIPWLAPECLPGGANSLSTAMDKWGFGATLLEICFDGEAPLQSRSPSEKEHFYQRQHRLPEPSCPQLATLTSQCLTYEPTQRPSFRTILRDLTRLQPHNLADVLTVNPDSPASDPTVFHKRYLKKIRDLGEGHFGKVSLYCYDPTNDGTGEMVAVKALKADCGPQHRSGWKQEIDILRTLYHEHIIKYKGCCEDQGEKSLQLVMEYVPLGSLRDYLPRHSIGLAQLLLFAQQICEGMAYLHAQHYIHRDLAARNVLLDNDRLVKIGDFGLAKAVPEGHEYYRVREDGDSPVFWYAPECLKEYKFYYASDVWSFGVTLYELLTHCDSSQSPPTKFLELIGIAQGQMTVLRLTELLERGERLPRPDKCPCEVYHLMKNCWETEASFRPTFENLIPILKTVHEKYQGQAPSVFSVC
Hi there, I'd appreciate the recorded DC50 for every entry that follows.

Query block: Please report DC50 for the following compound: "CNc1cc(N2CCc3c(-c4ncc(CN5CC6(CCN(C(=O)c7ccc(Cl)c(N8CCC(=O)NC8=O)c7)CC6(F)F)C5)cc4F)cccc32)nn2c(C(=O)N[C@@H]3C[C@@H]3F)cnc12"
Result block: < 1 nM

Query block: Quick one: give measured DC50 for CNc1cc(N2CCc3c(-c4ccc(CN5CCC(N6CCC(COc7ccc(Cl)c(N8CCC(=O)NC8=O)c7)CC6)CC5)cn4)cccc32)nn2c(C(=O)NC3CCC3OC)cnc12 (centres unmarked)
Result block: < 10 nM

Query block: Specify reported DC50 for the compound shown: CNc1cc(N2CCc3c(-c4ccc(CN5CCC(N6CCC(C7CCN(c8ccc9c(c8)n(C)c(=O)n9C8CCC(=O)NC8=O)CC7)CC6)C(F)(F)C5)cn4)cccc32)nn2c(C(=O)N[C@@H]3C[C@@H]3F)cnc12 (some centres unmarked)
Result block: < 10 nM

Query block: Respond only with DC50 recorded for "CNc1cc(N2CCc3c(CN4CCC5(CC4)CCN(C4CCN(C(=O)c6ccc(Cl)c(N7CCC(=O)NC7=O)c6)CC4)CC5(F)F)cccc32)nn2c(C(=O)N[C@@H]3C[C@@H]3F)cnc12"
Result block: < 10 nM

Query block: Name the recorded DC50 of the item CNc1cc(N2CCc3c(CN4CCC(N5CCC(N6CCN(c7ccc8c(c7)n(C)c(=O)n8C7CCC(=O)NC7=O)CC6)CC5)C(F)(F)C4)cccc32)nn2c(C(=O)N[C@@H]3C[C@@H]3F)cnc12 (some centres unmarked) in your answer.
Result block: < 1 nM

Query block: Recall and state the measured DC50 for "CNc1cc(N2CCc3c(-c4ccc(CN5CC6(CCN(Cc7ccc(N8CCC(=O)NC8=O)c(Cl)c7)CC6(F)F)C5)cn4)cccc32)nn2c(C(=O)N[C@H]3C[C@H]3F)cnc12" .
Result block: < 10 nM

Query block: Name the recorded DC50 of the item "CNc1cc(N2CCc3c(-c4ccc(N5CCN(C(=O)c6ccc(Cl)c(N7CCC(=O)NC7=O)c6)CC5)cn4)cccc32)nn2c(C(=O)N[C@@H]3C[C@@H]3F)cnc12" in your answer.
Result block: < 10 nM

Query block: Let me know recorded DC50 for "CNc1cc(N2CCc3c(-c4ccc(CC5CC6(CCN(C(=O)c7cc(F)c(Cl)c(N8CCC(=O)NC8=O)c7)CC6)C5)cn4)cccc32)nn2c(C(=O)N[C@@H]3CC[C@H]3OC)cnc12" , thanks.
Result block: < 10 nM

###

Kindly supply the reported DC50 values for the records listed here.
Target: TYK2 (Homo sapiens, UniProt P29597)
Construct: Degradation of TYK2 in cells was quantitatively measured using Meso Scale Discovery (MSD) technology; endogenous in cells; host or cells: OCI-LY10
Assay: TYK2 MSD degradation in OCI-LY10 cells
Type: cell-based
Conditions: OCI-LY10 cells, 4 to 24 hours incubation, read-out: TYK2 MSD OCI-LY10 Rel-DC50
Description: Example 7. TYK2 MSD Degradation Degradation of TYK2 in cells was quantitatively measured using Meso Scale Discovery (MSD) technology. OCI-LY10 cells were seeded in 96-well plates with a density of 0.4 million cells per well in 100 μl fresh media. […] The assay plates were then incubated at room temperature for 1 hour, washed 3 times with 150 μl/well TB ST buffer, and 150 μl/well MSD reading buffer (MSD, R92TC-2) were added. The plates were then analyzed by an MSD reader. […]

Query block: Supply DC50 measured with TYK2 (Homo sapiens, UniProt P29597) for CNc1cc(N2CCc3c(CN4CCC(N5CCC6(CCN(C(=O)c7cc(F)c(Cl)c(N8CCC(=O)NC8=O)c7)CC6)CC5)C(F)(F)C4)cccc32)nn2c(C(=O)N[C@@H]3C[C@@H]3F)cnc12 (stereo partly drawn) .
Result block: < 0.001 µM

Query block: Provide DC50, recorded with TYK2 (Homo sapiens, UniProt P29597), of CNc1cc(N2CCc3c(CN4CCC(N5CCC6(CCN(C(=O)c7cc(C)c(Cl)c(N8CCC(=O)NC8=O)c7)CC6)CC5)C(F)(F)C4)cccc32)nn2c(C(=O)N[C@@H]3C[C@@H]3F)cnc12 (stereo partly drawn)
Result block: < 0.01 µM

Query block: State recorded DC50 with TYK2 (Homo sapiens, UniProt P29597), entry "CNc1cc(-c2cn(CC3CCN(C4CCN(C(=O)c5ccc(Cl)c(N6CCC(=O)NC6=O)c5)CC4)CC3)c3ccccc23)nn2c(C(=O)N[C@@H]3C[C@@H]3F)cnc12" , no comment.
Result block: > 0.1 µM

###

biological target: TYK2 (Homo sapiens); construct: Degradation of TYK2 in cells was quantitatively measured using Meso Scale Discovery (MSD) technology; endogenous in cells; host or cells: OCI-LY10; test: TYK2 MSD degradation in OCI-LY10 cells; assay type: cell-based; conditions: TYK2 degradation in OCI-LY10 cells, 4 to 24 hours incubation

compound.string	tested.on	TYK2 MSD OCI-LY10 Dmax %
CNc1cc(N2CCc3c(-c4cc(N5CCC6(CCN(C(=O)c7ccc(Cl)c(N8CCC(=O)NC8=O)c7)CC6)CC5)ccn4)cccc32)nn2c(C(=O)N[C@@H]3C[C@@H]3F)cnc12	TYK2 (Homo sapiens)	C (C (75 to 50%))
CNc1cc(N2CCc3c(C#CCN4CCC5(CCN(C(=O)c6ccc(Cl)c(N7CCC(=O)NC7=O)c6)CC5)C(F)(F)C4)cccc32)nn2c(C(=O)N[C@@H]3C[C@@H]3F)cnc12	TYK2 (Homo sapiens)	C (C (75 to 50%))

The reported numbers originate from patent US20260125400A1.
